Test: ATG_M_06_CIS: Attagene CIS-FACTORIAL HepG2 Assay for M06 Transcription Factor (Internal Marker) (AID 2282950)
Details: HepG2 Attagene CIS-FACTORIAL M06 internal marker reporter; actives raise or lower the signal
Calls of active or inactive are those of the source. The calls were made as follows: active = hit-call score of the fitted dose curve at least 0.9, where 1 is the maximum; inactive = score below 0.9.
parameter: outcome

Find the recorded outcome belonging to ClC(Cl)=C(c1ccc(Cl)cc1)c1ccc(Cl)cc1 and report it. inactive

Find the recorded outcome belonging to ClC1=C(Cl)[C@]2(Cl)[C@@H]3[C@@H](Cl)[C@H]4O[C@H]4[C@@H]3C1(Cl)C2(Cl)Cl and report it. inactive

Find the recorded outcome belonging to Clc1ccc(C(Cl)(Cl)Cl)cc1 and report it. inactive

Find the recorded outcome belonging to c1ccc(-c2ccccc2)cc1 and report it. inactive

Find the recorded outcome belonging to CC(C)(c1ccccc1)c1ccc(O)cc1 and report it. inactive

Find the recorded outcome belonging to CCOP(=S)(OCC)SCSC(C)(C)C and report it. inactive

Find the recorded outcome belonging to Cc1ccccc1[N+](=O)[O-] and report it. inactive

Find the recorded outcome belonging to CO/C=C(/C(=O)OC)c1ccccc1COc1cccc(C(F)(F)F)n1 and report it. inactive

Find the recorded outcome belonging to CCCCCCCCCC[N+](C)(C)CCCCCCCCCC and report it. inactive

Find the recorded outcome belonging to O=C(N[C@H]1CN2CCC1CC2)c1cc2ccoc2cn1 and report it. inactive

Further cases:
Find the recorded outcome belonging to CC(C)(O)C(=O)Nc1ccc([N+](=O)[O-])c(C(F)(F)F)c1 and report it. inactive

Find the recorded outcome belonging to O=C(O)C(F)(F)C(F)(F)C(F)(F)C(F)(F)C(F)(F)C(F)(F)C(F)(F)C(F)(F)F and report it. inactive
